Just for reference, the DeepSol protein solubility set is where these values come from.

procedure.text: soluble on expression in E. coli; label from the status in PepcDB or PDB records
reported.endpoint: soluble on expression in E. coli

>  <monomer.sequence>
MGSDKIHHHHHHMNRRDLLVGLGAATLVPKASWADAHNPAFLSAAQAPDGNYHLCGLDPRGDVVFSIPLPGRGHAAAAHPTRPEAVAFARRPGRFALILDCVTGQETARLLPPPNRHFYGHGTFSSDGDVLFTTENDLTTLEGRIGLWDAAHGYVRLGDVPSGGIGPHDIARLPGTETLVIANGGIATHPDSGRTPLNPATMRSNLAYMRTDGTLLERVELDVTLRQNSIRHLSIRDDGLVSAGMQWNGAEGEHPPLTLLHRIGAAPRLLAAPTQTHRQLDGYVGSISFDQAGAHVAVTSPRGGTVHIFDVNSGAFAGLITAEDICGLALSHRAGLIATTGQGITGFVAQDDLTQMRHSSWRWDNHIVAI

>  <soluble on expression in E. coli>
not soluble

$$$$
>  <monomer.sequence>
MKIGIFTDCYYPQINGVVTSTMNLQKELEKLNHEVYIITTTFPNFKDEDEKHIIRIPSIPFFKWSEFRIGLFLKHTKAYNKVKALNFDIVHTQTEFSMGNFGTFIAKDLNIPCIHTYHTVYEEYTHYISNFGKSPLKKVVRKLSKRYIAHFSGVIAPTEKTRDLLISYGVKNKIYVVPTGINLEKFKKDIPDAETNSLLKSFNIKKDSFKLIFLGRISKEKNIETLINIMPKIVSENNNIQLIIVGDGPDRLELEERVRYLDLQDNVIFTNRIPNDKVPIYYKAADLFISPSKTETQGLTILEAMAAGVPVLVYDDTNIKGLVLHKKTGLLFKENDELLDNIKFALNNKEEIQSYAKEAFKIAEDFSSANFAKKVERIYKELINQ

>  <soluble on expression in E. coli>
not soluble

$$$$
>  <monomer.sequence>
MGSSHHHHHHSSGRENLYFQGMKLATLKDSTRDGKLVVVSKDLTRCSEVGHIARTLQAALDDWAHAGPRLERVAEGIETGAQPTMRFHEHDAASPLPRAFQWADGSAYVNHVELVRKARNAEMPASFWTDPLIYQGGSDSFLGPRDPILMADDAWGIDMEGEAAVIVDDVPMGATLDEAKAAIRLVMLVNDVSLRGLIPGELAKGFGFYQSKPSSAFSPVAVTPEELGEAWDGGKLHLPLHVDLNGEPFGRANAGIDMTFDFPQLIVHAARTRPLSAGTIIGSGTVSNKLEGGPGRPVSEGGAGYSCIAELRMIETIEGGAPKTQFLKFGDVVRIEMKDRTGHSIFGAIEQKVGKYERG

>  <soluble on expression in E. coli>
soluble

$$$$
>  <monomer.sequence>
MVNLELIEVQEGKAKILIPKAESIYDSPVFYNPRMALNRDIVVVLLNILNPKIVLDALSATGIRGIRFALETPAEEVWLNDISEDAYELMKRNVMLNFDGELRESKGRAILKGEKTIVINHDDANRLMAERHRYFHFIDLDPFGSPMEFLDTALRSAKRRGILGVTATDGAPLCGAHPRACLRKYLAVPLRGELCHEVGTRILVGVIARYAAKYDLGIDVILAYYKDHYFRAFVKLKDGARKGDETLEKLGYIYFDDKTGKFELEQGFLPTRPNAYGPVWLGPLKDEKIVSKMVKEAESLSLARKKQALKLLKMIDQELDIPLFYDTHAIGRRLKIETKKVEEIISALREQGYEATRTHFSPTGIKTSAPYEVFIETIKRI

>  <soluble on expression in E. coli>
soluble

$$$$
>  <monomer.sequence>
GSHMAGLPRRIIKETQRLLAEPVPGIKAEPDESNARYFHVVIAGPQDSPFEGGTFKLELFLPEEYPMAAPKVRFMTKIYHPNVDKLGRICLDILKDKWSPALQIRTVLLSIQALLSAPNPDDPLANDVAEQWKTNEAQAIETARAWTRLYAMNNI

>  <soluble on expression in E. coli>
soluble

$$$$

Field: next sequence
Request: Look up soluble on expression in E. coli: "RKADEGKWQLVGGDIQNAIVQNICMMDDNKIACEVFGTPNGVDGRTRVCVSDASVFDFEWYEDEIYGGLIFDTFFYSPWDKLLYAKFGGIMLRSKESFITSFISPTVVQGVDVYTLAGKIRIESETPVSEVLLFDLAGRMVLRQTIDNKIYSDIDTNGLKRSGIYVVSVRLSSGQVFSHKVQV"
Result: not soluble
